- system: FBW7^ARG+pCycE (Homo sapiens, UniProt Q969H0, R505L)
- Construct: GST (TEV site and flexible linker) (N, cleaved yes); made in house; host or cells: SF9 insect cells (baculovirus)
- Sequence (Q969H0 64-707 R505L): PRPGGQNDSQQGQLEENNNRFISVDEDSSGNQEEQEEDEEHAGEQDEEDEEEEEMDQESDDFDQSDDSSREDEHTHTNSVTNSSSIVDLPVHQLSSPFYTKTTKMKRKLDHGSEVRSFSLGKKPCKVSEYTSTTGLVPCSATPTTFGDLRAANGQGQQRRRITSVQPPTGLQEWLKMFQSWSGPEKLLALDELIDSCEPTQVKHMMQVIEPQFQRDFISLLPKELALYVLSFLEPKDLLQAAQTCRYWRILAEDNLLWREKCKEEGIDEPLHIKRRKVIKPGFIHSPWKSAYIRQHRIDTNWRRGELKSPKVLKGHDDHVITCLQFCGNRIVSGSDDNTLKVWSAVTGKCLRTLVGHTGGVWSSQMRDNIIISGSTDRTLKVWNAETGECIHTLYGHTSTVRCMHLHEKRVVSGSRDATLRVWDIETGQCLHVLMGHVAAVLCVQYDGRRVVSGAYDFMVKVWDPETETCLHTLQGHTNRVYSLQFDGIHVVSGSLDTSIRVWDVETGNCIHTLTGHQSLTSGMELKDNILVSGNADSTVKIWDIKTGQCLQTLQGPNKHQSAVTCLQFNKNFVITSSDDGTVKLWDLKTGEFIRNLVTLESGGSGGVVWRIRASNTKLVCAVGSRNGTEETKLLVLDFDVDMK
- Sequence (P63208 2-163 partner): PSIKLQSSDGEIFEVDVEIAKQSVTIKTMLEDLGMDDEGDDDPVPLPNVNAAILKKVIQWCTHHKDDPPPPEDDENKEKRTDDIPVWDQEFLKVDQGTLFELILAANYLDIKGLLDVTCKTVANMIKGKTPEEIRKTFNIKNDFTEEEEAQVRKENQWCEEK
- protocol.description: FBW7^ARG-cyclin E agonist ALPHAscreen (primary PRUN, confirmation CRUN1, dose-response DRUN)
- Assay type: binding
- experimental.setup: DRUN dose-response, relative to WT-FBW7+pCycE; read-out: FBW7 ACT Averaged Max % Response
measured.parameter: Emax (%)

Known Emax results, listed for orientation:
>  <molecule>
CC1=C(C(=O)OC2CCCCC2)C(c2ccc(F)cc2)C2=C(CC(c3ccccc3)CC2=O)N1 (centres unmarked) [SR-01000420805-1]

>  <system>
FBW7^ARG+pCycE (Homo sapiens, UniProt Q969H0, R505L)

>  <measured.parameter>
Emax

>  <measured>
10

$$$$
>  <molecule>
CCOC(=O)c1sc2ncn(CC(=O)NCCC3=CCCCC3)c(=O)c2c1C [SR-01000119175-1]

>  <system>
FBW7^ARG+pCycE (Homo sapiens, UniProt Q969H0, R505L)

>  <measured.parameter>
Emax

>  <measured>
10.3

$$$$
>  <molecule>
NC(c1nc2cc(-c3ccncc3)cnc2[nH]1)c1ccc(F)cc1F.O=C(O)C(F)(F)F (centres unmarked) [SR-00000003416-1]

>  <system>
FBW7^ARG+pCycE (Homo sapiens, UniProt Q969H0, R505L)

>  <measured.parameter>
Emax

>  <measured>
16.4

$$$$
>  <molecule>
Cc1ccc2nc(SCC(=O)Nc3ncc(C)s3)c(C#N)cc2c1 [SR-01000340506-1]

>  <system>
FBW7^ARG+pCycE (Homo sapiens, UniProt Q969H0, R505L)

>  <measured.parameter>
Emax

>  <measured>
10.7

$$$$
>  <molecule>
CCSc1nnc(C2CCN(CC(=O)Nc3cccc4ccccc34)CC2)n1C [SR-01000349710-1]

>  <system>
FBW7^ARG+pCycE (Homo sapiens, UniProt Q969H0, R505L)

>  <measured.parameter>
Emax

>  <measured>
22.9

$$$$
>  <molecule>
CCN(CC)c1ccc2cc(-c3ccccn3)c(=O)oc2c1 [SR-01000033354-1]

>  <system>
FBW7^ARG+pCycE (Homo sapiens, UniProt Q969H0, R505L)

>  <measured.parameter>
Emax

>  <measured>
21.9

$$$$
>  <molecule>
COc1cc2c(cc1OC)C(COc1ccc([N+](=O)[O-])cc1)N(C(=O)c1ccc3c(c1)OCO3)CC2 (centres unmarked) [SR-01000568734-1]

>  <system>
FBW7^ARG+pCycE (Homo sapiens, UniProt Q969H0, R505L)

>  <measured.parameter>
Emax

>  <measured>
16

$$$$
>  <molecule>
Cc1cc(OCC(=O)Nc2ccc3oc(-c4ccccc4Br)nc3c2)cc(C)c1Cl [SR-01000421466-1]

>  <system>
FBW7^ARG+pCycE (Homo sapiens, UniProt Q969H0, R505L)

>  <measured.parameter>
Emax

>  <measured>
8.15

$$$$

I = COc1ccccc1-c1ccc(N2CCN(C(=O)COc3ccccc3)CC2)nn1 [SR-01000920770-1]
II = CC1=C(C(=O)OC(C)C)C(c2ccncc2)C2=C(CC(c3ccccc3)CC2=O)N1 (centres unmarked) [SR-01000217822-2]
III = CCN(CC)c1ccc2cc(-c3nc(C)cs3)c(=O)oc2c1 [SR-01000312020-1]
Ask: Output the entries ranked by Emax from maximum down to minimum. Put the labels in the requested order and write them down.
Result: I, III, II
(I: 23.1%, III: 13.9%, II: 7.67%)

====

EC50 by entry:
- system: FBW7^ARG+pCycE (Homo sapiens, UniProt Q969H0, R505L)
- Construct: GST (TEV site and flexible linker) (N, cleaved yes); made in house; host or cells: SF9 insect cells (baculovirus)
- protocol.description: FBW7^ARG-cyclin E agonist ALPHAscreen (primary PRUN, confirmation CRUN1, dose-response DRUN)
- Type: binding
- experimental.setup: DRUN dose-response, triplicate, 10 point 3-fold dilution, max approx. 87 μM; read-out: FBW7 ACT Final EC50, Molar

Known EC50 results, listed for orientation:
>  <compound>
CCCCCCCC(=O)Nc1ccc(C(=O)Nc2ccc(O)c(C(=O)O)c2)cc1

>  <EC50>
> 49.3 µM

$$$$
>  <compound>
Cc1cc(OCC(=O)Nc2ccc3oc(-c4ccccc4Br)nc3c2)cc(C)c1Cl

>  <EC50>
> 43.2 µM

$$$$
>  <compound>
COc1cccc(/C=N/c2cnn(C)c2C(N)=O)c1O

>  <EC50>
> 65.3 µM

$$$$

Ask: Hello, please tell me recorded EC50 for this one: `CN(C)CCN(C)c1nc([C@H](N)Cc2cccc(F)c2)cc2ccc(-c3cn[nH]c3)cc12.O=C(O)C(F)(F)F`
Result: > 16.3 µM

Ask: Hello, please tell me recorded EC50 for this one: `COc1ccc(OC)c(/C=C2/N=C(c3cccc([N+](=O)[O-])c3)OC2=O)c1`
Result: > 59.3 µM

Ask: Hello, please tell me recorded EC50 for this one: `CC(C)c1ccc(Nc2nccn3c(-c4ccoc4)cnc23)cc1`
Result: > 65.3 µM

Ask: Hello, please tell me recorded EC50 for this one: CCN(CC)c1ccc2c(c1)OC(N)=C(C#N)C2c1ccccc1 (centres unmarked)
Result: > 65.3 µM

Ask: Hello, please tell me recorded EC50 for this one: `Cc1ccc(-c2nnc(N3CCN(C(=O)c4ccco4)CC3)c3ccccc23)cc1`
Result: > 54 µM

====

- system: FBW7^ARG+pCycE (Homo sapiens, UniProt Q969H0, R505L)
- Construct: GST (TEV site and flexible linker) (N, cleaved yes); made in house; host or cells: SF9 insect cells (baculovirus)
- protocol.description: FBW7^ARG-cyclin E agonist ALPHAscreen (primary PRUN, confirmation CRUN1, dose-response DRUN)
- Assay type: binding
- experimental.setup: DRUN dose-response, relative to WT-FBW7+pCycE; read-out: FBW7 ACT Averaged Max % Response
measured.parameter: Emax (%)

Known Emax results, listed for orientation:
>  <compound>
O=C([C@H]1CC[C@H](Nc2nccc(-c3ccc4nc(C5CC5)nc(O)c4c3)n2)CC1)N1CCCC1

>  <Emax [%]>
35.9

$$$$
>  <compound>
COc1ccc(C2CC(=O)C3=C(C2)NC(C)=C(C(=O)OC(C)C)C3c2ccccc2OC(C)C)cc1 (stereo not shown)

>  <Emax [%]>
9.7

$$$$

1 = CCCOC(=O)C1=C(C)N(CC)C(=O)NC1c1ccccc1[N+](=O)[O-] (stereo not shown)
2 = C/C(=N\Nc1cccc(C(F)(F)F)c1)C1CC1
Ask: Compare the recorded Emax of 1 and 2 ; state which is larger. # reply format: chosen label
Result: 2
(2: 26.6%, 1: 17.3%)

a = CN(C)CCN(C)c1nc([C@H](N)Cc2cccc(F)c2)cc2ccc(-c3cn[nH]c3)cc12.O=C(O)C(F)(F)F
b = CCSCCOC(=O)C1=C(C)NC2=C(C(=O)CC(c3ccccc3)C2)C1c1ccc(OC)cc1OC (stereo not shown)
c = O=C(Cc1ccc(Br)cc1)N1CCC(c2nc(O)c3cnccc3n2)C1.O=C(O)C(F)(F)F (stereo not shown)
Ask: Output the entries ranked by Emax from maximum down to minimum. Put the labels in the requested order and write them down.
Result: c, a, b

====

- system: FBW7^ARG+pCycE (Homo sapiens, UniProt Q969H0, R505L)
- Construct: GST (TEV site and flexible linker) (N, cleaved yes); made in house; host or cells: SF9 insect cells (baculovirus)
- protocol.description: FBW7^ARG-cyclin E agonist ALPHAscreen (primary PRUN, confirmation CRUN1, dose-response DRUN)
- Format: binding
- experimental.setup: DRUN dose-response, relative to WT-FBW7+pCycE; read-out: FBW7 ACT Averaged Max % Response
measured.parameter: Emax (%)

Known Emax results, listed for orientation:
>  <compound>
O=C(Nc1ccc2c(c1)OCO2)N1CCC(c2nnc(C3CC3)s2)CC1

>  <system>
FBW7^ARG+pCycE (Homo sapiens, UniProt Q969H0, R505L)

>  <Emax (%)>
17.5

$$$$
>  <compound>
COc1ccccc1-c1ccc(=O)n(CC(=O)Nc2ccc(C(=O)N3CCCC3)cc2)n1

>  <system>
FBW7^ARG+pCycE (Homo sapiens, UniProt Q969H0, R505L)

>  <Emax (%)>
18

$$$$
>  <compound>
COCCOC(=O)C1=C(C)NC2=C(C(=O)CC(c3ccccc3)C2)C1c1ccc(OCc2ccccc2)cc1 (centres unmarked)

>  <system>
FBW7^ARG+pCycE (Homo sapiens, UniProt Q969H0, R505L)

>  <Emax (%)>
8.49

$$$$
>  <compound>
COc1ccc(N2C(=O)CC(SCCN)C2=O)cc1 (centres unmarked)

>  <system>
FBW7^ARG+pCycE (Homo sapiens, UniProt Q969H0, R505L)

>  <Emax (%)>
9.73

$$$$
>  <compound>
Cc1ccnc(N2CCC(C(=O)Nc3ccccc3Br)CC2)n1

>  <system>
FBW7^ARG+pCycE (Homo sapiens, UniProt Q969H0, R505L)

>  <Emax (%)>
6.46

$$$$
>  <compound>
CC1=C(C(=O)OCCc2ccccc2)C(c2ccc(Cl)cc2Cl)C2=C(CC(C)(C)CC2=O)N1 (centres unmarked)

>  <system>
FBW7^ARG+pCycE (Homo sapiens, UniProt Q969H0, R505L)

>  <Emax (%)>
9.01

$$$$
>  <compound>
Cn1nc(CC(=O)Nc2ccc(F)c(Cl)c2)c2ccccc2c1=O

>  <system>
FBW7^ARG+pCycE (Homo sapiens, UniProt Q969H0, R505L)

>  <Emax (%)>
7.32

$$$$
>  <compound>
CCN1C(=O)c2cccc3c(N4CCCC4)ccc(c23)C1=O

>  <system>
FBW7^ARG+pCycE (Homo sapiens, UniProt Q969H0, R505L)

>  <Emax (%)>
16.3

$$$$
>  <compound>
COc1ccccc1N1C(=O)c2ccc(C(=O)Nc3cc([N+](=O)[O-])ccc3O)cc2C1=O

>  <system>
FBW7^ARG+pCycE (Homo sapiens, UniProt Q969H0, R505L)

>  <Emax (%)>
10.6

$$$$
>  <compound>
Cc1ccc(-c2nnc(N3CCN(C(=O)c4ccco4)CC3)c3ccccc23)cc1

>  <system>
FBW7^ARG+pCycE (Homo sapiens, UniProt Q969H0, R505L)

>  <Emax (%)>
16.5

$$$$

P = CC(C)[C@@H](CO)Nc1ccc2ncc(-c3cccc(Cl)c3)n2n1
Q = CC(=O)NCC(c1cccs1)S(=O)(=O)c1ccc(C)cc1 (centres unmarked)
Ask: Lower Emax: P or Q ? # reply format: chosen label
Result: P

Source of measurements: patent US20210047278A1
